// data source = the supplement of paper PMC10307832

- System: NCI-H2085
- Assay Text: relative viability (nuclei count vs DMSO), 5 days (fraction); higher = more cells survive
- Experimental Parameters: first compound 0.1 µM

# Compound, relative viability
rows = [
    ("CCN(CC)CCCCNc1ncc2cc(-c3cc(OC)cc(OC)c3)c(NC(=O)NC(C)(C)C)nc2n1 + C[C@]1(O)C[C@@H](c2nc(-c3ccc4ccc(-c5ccccc5)nc4c3)c3c(N)nccn32)C1 [Linsitinib] (partner 1 µM)", 1.07),
    ("O=c1cc(N2CCOCC2)oc2c(-c3cccc4c3sc3ccccc34)cccc12 + O=C(c1cc(Cc2n[nH]c(=O)c3ccccc23)ccc1F)N1CCN(C(=O)C2CC2)CC1 [Olaparib] (partner 8 µM)", 0.775),
]

* * *

- Test system: NCI-H1651
- Assay Text: relative viability (nuclei count vs DMSO), 5 days (fraction); higher = more cells survive
- Experimental Parameters: first compound 0.1 µM

# Molecule, Experimental Target, relative viability
records = [
    ("CCN(CC)CCCCNc1ncc2cc(-c3cc(OC)cc(OC)c3)c(NC(=O)NC(C)(C)C)nc2n1 + N=C(N)NC(=N)NCCc1ccccc1 [Phenformin] (partner 250 µM)", "NCI-H1651", 0.347),
    ("O=c1cc(N2CCOCC2)oc2c(-c3cccc4c3sc3ccccc34)cccc12 + COc1cccc2cc(-c3nc([C@H]4CC[C@H](C(=O)O)CC4)n4ncnc(N)c34)[nH]c12 [OSI-027] (partner 0.5 µM)", "NCI-H1651", 0.668),
    ("O=c1cc(N2CCOCC2)oc2c(-c3cccc4c3sc3ccccc34)cccc12 + Cc1nc(NC(=O)N2CCC[C@H]2C(N)=O)sc1-c1ccnc(C(C)(C)C(F)(F)F)c1 [Alpelisib] (partner 2 µM)", "NCI-H1651", 1.04),
    ("O=c1cc(N2CCOCC2)oc2c(-c3cccc4c3sc3ccccc34)cccc12 + CS(=O)(=O)N1CCN(Cc2cc3nc(-c4cccc5[nH]ncc45)nc(N4CCOCC4)c3s2)CC1 [Pictilisib] (partner 1 µM)", "NCI-H1651", 0.636),
    ("O=c1cc(N2CCOCC2)oc2c(-c3cccc4c3sc3ccccc34)cccc12 + O=C(c1cc(Cc2n[nH]c(=O)c3ccccc23)ccc1F)N1CCN(C(=O)C2CC2)CC1 [Olaparib] (partner 8 µM)", "NCI-H1651", 0.179),
]

* * *

Listing: relative viability of selected compounds
- Tested on: NCI-H1755
- Assay Text: relative viability (nuclei count vs DMSO), 5 days (fraction); higher = more cells survive
- Experimental Parameters: first compound 2.53 µM

# Compound, relative viability
rows = [
    ("COc1nc(C)cnc1NS(=O)(=O)c1cccnc1-c1ccc(-c2nnco2)cc1 [Zibotentan] + NC(=O)Nc1cc(-c2cccc(F)c2)sc1C(=O)N[C@H]1CCCNC1 [AZD7762] (partner 0.2 µM)", 0.471),
    ("COc1nc(C)cnc1NS(=O)(=O)c1cccnc1-c1ccc(-c2nnco2)cc1 [Zibotentan] + COc1cc2c(Oc3ccc(NC(=O)C4(C(=O)Nc5ccc(F)cc5)CC4)cc3F)ccnc2cc1OCCCN1CCOCC1 [Foretinib] (partner 0.25 µM)", 0.929),
    ("O=c1cc(-c2cccc3c2Sc2ccccc2S3)oc(N2CCOCC2)c1 + Nc1ncn([C@H]2C[C@H](O)[C@@H](CO)O2)c(=O)n1 [Decitabine] (partner 2 µM)", 0.688),
    ("COc1nc(C)cnc1NS(=O)(=O)c1cccnc1-c1ccc(-c2nnco2)cc1 [Zibotentan] + CS(=O)(=O)N1CCN(Cc2cc3nc(-c4cccc5[nH]ncc45)nc(N4CCOCC4)c3s2)CC1 [Pictilisib] (partner 1 µM)", 0.47),
    ("COc1nc(C)cnc1NS(=O)(=O)c1cccnc1-c1ccc(-c2nnco2)cc1 [Zibotentan] + O=C(c1cc(Cc2n[nH]c(=O)c3ccccc23)ccc1F)N1CCN(C(=O)C2CC2)CC1 [Olaparib] (partner 8 µM)", 0.907),
    ("COc1nc(C)cnc1NS(=O)(=O)c1cccnc1-c1ccc(-c2nnco2)cc1 [Zibotentan] + COc1cccc2cc(-c3nc([C@H]4CC[C@H](C(=O)O)CC4)n4ncnc(N)c34)[nH]c12 [OSI-027] (partner 0.5 µM)", 0.793),
    ("COc1nc(C)cnc1NS(=O)(=O)c1cccnc1-c1ccc(-c2nnco2)cc1 [Zibotentan] + CCNC(=O)c1noc(-c2cc(C(C)C)c(O)cc2O)c1-c1ccc(CN2CCOCC2)cc1 [Luminespib] (partner 0.01 µM)", 0.252),
    ("O=c1cc(-c2cccc3c2Sc2ccccc2S3)oc(N2CCOCC2)c1 + Cc1nc(NC(=O)N2CCC[C@H]2C(N)=O)sc1-c1ccnc(C(C)(C)C(F)(F)F)c1 [Alpelisib] (partner 2 µM)", 0.925),
    ("COc1nc(C)cnc1NS(=O)(=O)c1cccnc1-c1ccc(-c2nnco2)cc1 [Zibotentan] + Cc1nc(NC(=O)N2CCC[C@H]2C(N)=O)sc1-c1ccnc(C(C)(C)C(F)(F)F)c1 [Alpelisib] (partner 2 µM)", 0.94),
    ("COc1nc(C)cnc1NS(=O)(=O)c1cccnc1-c1ccc(-c2nnco2)cc1 [Zibotentan] + N=C(N)NC(=N)NCCc1ccccc1 [Phenformin] (partner 250 µM)", 0.703),
]

* * *

- Test system: NCI-H520
- Assay Text: relative viability (nuclei count vs DMSO), 5 days (fraction); higher = more cells survive
- Experimental Parameters: first compound 0.8 µM
This section presents molecules with their documented relative viability values.

# Molecule, relative viability
data = [
    ("O=c1cc(-c2cccc3c2Sc2ccccc2S3)oc(N2CCOCC2)c1 + CS(=O)(=O)N1CCN(Cc2cc3nc(-c4cccc5[nH]ncc45)nc(N4CCOCC4)c3s2)CC1 [Pictilisib] (partner 1 µM)", 0.306),
    ("O=c1cc(-c2cccc3c2Sc2ccccc2S3)oc(N2CCOCC2)c1 + O=C(CCCCCCC(=O)Nc1ccccc1)NO [Vorinostat] (partner 1 µM)", 0.741),
    ("COc1nc(C)cnc1NS(=O)(=O)c1cccnc1-c1ccc(-c2nnco2)cc1 [Zibotentan] + CC(=O)c1c(C)c2cnc(Nc3ccc(N4CCNCC4)cn3)nc2n(C2CCCC2)c1=O [Palbociclib] (partner 0.5 µM)", 0.208),
    ("O=c1cc(-c2cccc3c2Sc2ccccc2S3)oc(N2CCOCC2)c1 + CC(=O)c1c(C)c2cnc(Nc3ccc(N4CCNCC4)cn3)nc2n(C2CCCC2)c1=O [Palbociclib] (partner 0.5 µM)", 0.21),
    ("COc1nc(C)cnc1NS(=O)(=O)c1cccnc1-c1ccc(-c2nnco2)cc1 [Zibotentan] + CC(C)C[C@H](NC(=O)[C@H](Cc1ccccc1)NC(=O)c1cnccn1)B(O)O [Bortezomib] (partner 0.002 µM)", 0.575),
    ("O=c1cc(-c2cccc3c2Sc2ccccc2S3)oc(N2CCOCC2)c1 + Cc1cc(Nc2cc(N3CCN(C)CC3)nc(Sc3ccc(NC(=O)C4CC4)cc3)n2)n[nH]1 [Tozasertib] (partner 0.1 µM)", 0.502),
    ("COc1nc(C)cnc1NS(=O)(=O)c1cccnc1-c1ccc(-c2nnco2)cc1 [Zibotentan] + CCNC(=O)c1noc(-c2cc(C(C)C)c(O)cc2O)c1-c1ccc(CN2CCOCC2)cc1 [Luminespib] (partner 0.01 µM)", 0.242),
    ("O=c1cc(-c2cccc3c2Sc2ccccc2S3)oc(N2CCOCC2)c1 + COc1cccc2cc(-c3nc([C@H]4CC[C@H](C(=O)O)CC4)n4ncnc(N)c34)[nH]c12 [OSI-027] (partner 0.5 µM)", 0.297),
    ("O=c1cc(-c2cccc3c2Sc2ccccc2S3)oc(N2CCOCC2)c1 + CCNC(=O)c1noc(-c2cc(C(C)C)c(O)cc2O)c1-c1ccc(CN2CCOCC2)cc1 [Luminespib] (partner 0.01 µM)", 0.215),
    ("COc1nc(C)cnc1NS(=O)(=O)c1cccnc1-c1ccc(-c2nnco2)cc1 [Zibotentan] + Cc1nc(Nc2ncc(C(=O)Nc3c(C)cccc3Cl)s2)cc(N2CCN(CCO)CC2)n1 [Dasatinib] (partner 0.075 µM)", 0.224),
    ("COc1nc(C)cnc1NS(=O)(=O)c1cccnc1-c1ccc(-c2nnco2)cc1 [Zibotentan] + Cc1cc(Nc2cc(N3CCN(C)CC3)nc(Sc3ccc(NC(=O)C4CC4)cc3)n2)n[nH]1 [Tozasertib] (partner 0.1 µM)", 0.441),
]

* * *

- Tested on: NCI-H1993
- Assay Text: relative viability (nuclei count vs DMSO), 5 days (fraction); higher = more cells survive
- Experimental Parameters: first compound 20 µM
Measurement Label: relative viability

# Compound, Experimental Target, Observed
records = [
    ("COCC1(CO)C(=O)C2CCN1CC2 (stereo unspecified) [PRIMA-1MET] + COc1cc2c(Oc3ccc(NC(=O)C4(C(=O)Nc5ccc(F)cc5)CC4)cc3F)ccnc2cc1OCCCN1CCOCC1 [Foretinib] (partner 0.25 µM)", "NCI-H1993", 0.754),
    ("COCC1(CO)C(=O)C2CCN1CC2 (stereo unspecified) [PRIMA-1MET] + Nc1ncn([C@H]2C[C@H](O)[C@@H](CO)O2)c(=O)n1 [Decitabine] (partner 2 µM)", "NCI-H1993", 0.564),
    ("COCC1(CO)C(=O)C2CCN1CC2 (stereo unspecified) [PRIMA-1MET] + O=C(c1cc(Cc2n[nH]c(=O)c3ccccc23)ccc1F)N1CCN(C(=O)C2CC2)CC1 [Olaparib] (partner 8 µM)", "NCI-H1993", 0.896),
    ("COCC1(CO)C(=O)C2CCN1CC2 (stereo unspecified) [PRIMA-1MET] + CC1(C)CCC(c2ccc(Cl)cc2)=C(CN2CCN(c3ccc(C(=O)NS(=O)(=O)c4ccc(N[C@H](CCN5CCOCC5)CSc5ccccc5)c(S(=O)(=O)C(F)(F)F)c4)cc3)CC2)C1 [Navitoclax] (partner 0.5 µM)", "NCI-H1993", 1.02),
    ("COCC1(CO)C(=O)C2CCN1CC2 (stereo unspecified) [PRIMA-1MET] + N=C(N)NC(=N)NCCc1ccccc1 [Phenformin] (partner 250 µM)", "NCI-H1993", 0.57),
    ("COCC1(CO)C(=O)C2CCN1CC2 (stereo unspecified) [PRIMA-1MET] + Nc1nc2[nH]cc(CCc3ccc(C(=O)N[C@@H](CCC(=O)O)C(=O)O)cc3)c2c(=O)[nH]1 [Pemetrexed] (partner 0.2 µM)", "NCI-H1993", 0.557),
]
